- Test system: β-galactosidase in CMV-LacZ C2C12 myotubes
- ASSAY_NAME: CMV-LacZ secondary screen in C2C12 myotubes (β-Gal stabilizing assay)
- Type: cell-based, mouse
- CONDITION_INFO: 1 uM; SU9516 analogs, C2C12 CMV-LacZ, N=2
MEASURED_METRIC: CMV-LACZ in Myotubes, value relative to DMSO

# MOLECULE, RECORDED_MEASUREMENT
measured = [
    ("CCO/C(C)=C1\\C(=O)Nc2ccccc21", 0.9491),
    ("Cc1cc(C)c(/C=C2\\C(=O)Nc3ccccc32)[nH]1 [NCGC00094381-05]", 0.8773),
    ("CC(C)Oc1ccc(C(=O)/C=C2/C(=O)Nc3ccccc32)cc1", 0.9141),
    ("Cc1cc(C)c(/C=C2\\C(=O)Nc3ccccc32)[nH]1 [NCGC00094381-03]", 1.2227),
    ("Cc1ccc(/C=C2\\C(=O)Nc3ccccc32)o1", 1.0010),
    ("C=CCOc1ccc(C(=O)/C=C2/C(=O)Nc3ccccc32)cc1", 1.1905),
    ("O=Nc1c(-c2c(O)[nH]c3ccccc23)[nH]c2ccccc12 [NCGC00015545-07]", 1.1036),
    ("Cc1[nH]c(/C=C2\\C(=O)Nc3ccc(S(=O)(=O)Cc4c(Cl)cccc4Cl)cc32)c(C)c1C(=O)C1CCCN1CN1CCCC1 (stereo not drawn)", 1.9682),
    ("CCn1c(O)c(C(C#N)=C2N=c3ccccc3=N2)c2ccccc21", 1.0444),
    ("Cc1ccccc1/C=C1\\C(=O)Nc2ccc(F)cc21", 1.0038),
    ("COc1ccc2c(c1)/C(=C\\c1cccc(/C=C3/C(=O)Nc4ccc(OC)cc43)n1)C(=O)N2", 2.2829),
    ("NC(=O)COc1ccc(C(=O)/C=C2/C(=O)Nc3ccccc32)cc1", 0.8924),
    ("O=C1Nc2ccccc2/C1=C/c1ccnc2ccccc12", 1.0126),
    ("O=C1Nc2ccccc2/C1=C\\c1cccn1-c1ccc(OC(F)(F)F)cc1", 0.8467),
    ("Cc1ccc2c(c1)/C(=C/c1ccccc1)C(=O)N2", 0.9200),
    ("O=C1C(c2c(O)[nH]c3ccccc23)=Nc2ccccc21", 0.9736),
    ("CCOc1cc2c3c(c1)C(C)=CC(C)(C)N3C(=O)C2=O", 0.9410),
    ("COc1ccccc1/C=C1\\C(=O)Nc2ccccc21", 1.0073),
    ("CN1CCN(c2ccccc2/C=C2/C(=O)Nc3ccccc32)CC1", 0.8105),
    ("Cc1ccc2c(c1)/C(=C/c1ccccc1F)C(=O)N2", 0.9562),
    ("COc1cc(OC)c(/C=C2/C(=O)Nc3ccccc32)c(OC)c1", 1.1427),
    ("O=C1Nc2ccccc2/C1=C/c1ccc([N+](=O)[O-])cc1", 1.1318),
    ("CCN(CC)CCNC(=O)c1c(C)[nH]c(/C=C2\\C(=O)Nc3ccc(F)cc32)c1C [NCGC00164631-03]", 1.2736),
    ("O=C1Nc2ccccc2/C1=C/c1cnc(-c2ccccc2)[nH]1", 1.0059),
    ("CCN(CC)CCNC(=O)c1c(C)[nH]c(/C=C2\\C(=O)Nc3ccc(F)cc32)c1C [NCGC00164631-04]", 0.9164),
    ("Cc1ccc2c(c1)/C(=C/c1ccc(F)cc1)C(=O)N2", 1.0570),
    ("N#C/C(=C1/C(=O)Nc2ccc(Br)cc21)c1ccccn1", 1.1257),
    ("O=C1Nc2ccccc2/C1=C/c1ccccc1Cl", 1.0185),
    ("O=Nc1c(-c2c(O)[nH]c3ccccc23)[nH]c2ccccc12 [NCGC00015545-02]", 0.9536),
    ("O=C(O)COc1ccccc1/C=C1\\C(=O)Nc2ccc(Br)cc21", 1.0704),
]

* * *

- System: β-galactosidase in CMV-LacZ C2C12 myotubes
- ASSAY_NAME: CMV-LacZ secondary screen in C2C12 myotubes (β-Gal stabilizing assay)
- Type: cell-based, mouse
- CONDITION_INFO: 40 uM; C2C12 CMV-LacZ myotubes; fold relative to DMSO
MEASURED_METRIC: CMV-LACZ in Myotubes, signal relative to DMSO

# COMPOUND, RECORDED_MEASUREMENT
data = [
    ("CCCc1nnc(SCC(=O)NC2CCCC2)n1CCOC", 0.9495),
    ("Cc1nnc(SCC(=O)c2ccc(Br)cc2)s1", 1.1250),
    ("Cc1ccccc1-n1c(Cc2cccs2)n[nH]c1=S", 0.9141),
    ("COC(=O)Cc1c(O)ccn(Cc2ccc3c(c2)OCO3)c1=O", 0.9127),
    ("CC1CCN(S(=O)(=O)c2ccc(S(=O)(=O)N3CCCC3)cc2)CC1", 0.9352),
    ("Cc1ccccc1NC(=O)c1ccc2c(O)c(S(=O)(=O)c3ccccc3)c(=O)[nH]c2c1", 1.0110),
    ("c1ccc(-c2cn3c4c(sc3n2)CCCC4)cc1", 1.1160),
    ("C#CC1(O)CCC2C3CCC4=C/C(=N/OCC(=O)NCC(=O)NC(C(=O)O)C(C)C)CC[C@]4(C)C3CC[C@@]21C (stereo partly drawn)", 1.2482),
    ("COC(=O)c1ccc(COC(=O)CNC(=O)c2cccs2)cc1", 0.9346),
]

* * *

- Tested on: β-galactosidase in CMV-LacZ C2C12 myotubes
- ASSAY_NAME: CMV-LacZ secondary screen in C2C12 myotubes (β-Gal stabilizing assay)
- Assay type: cell-based, mouse
- CONDITION_INFO: 20 uM; CMV-LacZ C2C12 myotubes; 96-well format
// reported CMV-LACZ in Myotubes (β-galactosidase activity relative to DMSO) per item
MEASURED_METRIC: CMV-LACZ in Myotubes (β-galactosidase activity relative to DMSO)

# COMPOUND, RECORDED_MEASUREMENT
measured = [
    ("Cc1cccc(OCc2nc(C#N)c(N3CCCC3)o2)c1", 0.8804),
    ("NC(=O)c1nsc(C(=O)N(c2ccccc2)C(C(=O)NCc2ccc(F)cc2)c2ccc(O)cc2)c1N (centres unmarked)", 1.132),
    ("Cc1cc(NC(=O)CCC(=O)N(Cc2cccnc2)C(C(=O)NC(C)(C)C)c2ccccc2Cl)no1 (centres unmarked)", 1.091),
    ("C[C@H](NS(=O)(=O)c1ccc(Cl)cc1)C(=O)OCC(=O)c1ccc[nH]1", 0.993),
    ("CCS(=O)(=O)N1CCCC(C(=O)c2ccc(OC)cc2C)C1 (centres unmarked)", 0.9693),
    ("CCCCS(=O)(=O)N1CCCC(C(=O)NCCc2ccccc2)C1 (centres unmarked)", 0.8781),
    ("O=C(Nc1cc(Br)ccc1O)C1CC(c2ccccc2Cl)=NO1 (centres unmarked)", 0.9345),
    ("O=C(Nc1ccccc1)Nc1ccc(Cl)c(S(=O)(=O)N2CCOCC2)c1", 0.929),
    ("CS(=O)(=O)N(Cc1ccc(C(=O)NC2CCCC2)cc1)c1ccccc1", 1.124),
    ("C[C@H]1CNC(=O)c2c(C(=O)Nc3ccc(CNC(=O)OC(C)(C)C)cc3)ncn21", 0.743),
    ("CCOc1ccc(S(=O)(=O)NCCC(=O)NCC(c2cccs2)N2CCOCC2)cc1 (centres unmarked)", 0.9927),
    ("Cc1nnc(NC(=O)CSc2nnc(CCNC(=O)c3ccccc3F)n2C)s1", 0.9272),
    ("C/C(=N/OC(=O)CC(C)C)c1cc(-c2ccc(Cl)cc2)no1", 0.9276),
    ("S=c1[nH]nc(Cn2cnc3ccccc32)n1-c1ccccc1", 0.9474),
    ("CN(C)S(=O)(=O)c1cccc(C(=O)Nc2ccc3c(c2)CCC3)c1", 1.034),
    ("Cc1ccc(-c2csc(Nc3ccc(C(=O)O)cc3)[n+]2Cc2ccccc2)cc1", 0.448),
    ("CN(C)S(=O)(=O)c1ccc(C(=O)Nc2nc3ccccc3[nH]2)cc1", 1.171),
]

* * *

- System: β-galactosidase in CMV-LacZ C2C12 myotubes
- ASSAY_NAME: CMV-LacZ secondary screen in C2C12 myotubes (β-Gal stabilizing assay)
- Format: cell-based, mouse
- CONDITION_INFO: Mus musculus, C2C12, read-out: CMV-LACZ in Myotubes, signal relative to DMSO, 10 uM; C2C12 CMV-LacZ myotubes; fold relative to DMSO
// reported fold induction at 10 µM per item
MEASURED_METRIC: fold induction at 10 µM

# MOLECULE, RECORDED_MEASUREMENT
rows = [
    ("COc1ccc(N2CCN(C(=O)c3cc(C)on3)CC2)cc1 [MLS001124046-01]", 1.02),
    ("Cc1c(C(=O)N2CCCCC2)c(S(=O)(=O)Nc2cccc(Br)c2)c(C)n1C [MLS001096269-01]", 0.74),
    ("O=C(O)CCn1cc(/C=C2/NC(=S)N(c3ccccc3)C2=O)c(-c2ccccc2)n1 [MLS000585616-01]", 0.791),
    ("COc1ccc(-n2c(C)c(C(C)=O)c3cc(OC(C)=O)ccc32)cc1 [MLS001212998-01]", 0.908),
    ("O=C(NCCc1ccc(F)cc1)N[C@@H](Cc1ccccc1)C(=O)O [MLS001214704-01]", 1.28),
    ("COc1ccc(NC(=O)c2ccc3nc(C)sc3c2)cc1 [MLS001204005-01]", 1.14),
    ("COc1cc2c(cc1NC(=O)Cc1ccc(C)cc1)oc1ccccc12 [MLS000579238-01]", 0.872),
    ("COc1ccccc1C(=O)Nc1nc2cc3c(cc2s1)OCO3 [MLS000419555-01]", 1.21),
    ("COc1cccc(NC(=O)c2ccc3c(c2)CCCC3)c1 [MLS000879190-01]", 1.05),
    ("COc1ccc(-c2cc(COc3ccccc3)on2)cc1 [MLS000695955-01]", 0.896),
    ("Cc1ccc(NC(=O)C2CCCCC2C(=O)O)cc1C (stereo not shown) [MLS000850824-01]", 0.992),
    ("COc1nccc(NCc2ccccc2)c1C#N [MLS001077207-01]", 1.04),
    ("Cc1nc2c([nH]1)OC(N)=C(C#N)C21CCN(Cc2ccccc2)CC1 [MLS000047918-01]", 0.8),
]
